Origin of the recorded values: PubChem BioAssay (EPA / NIEHS)

Experiment: ATG_E_Box_CIS: Attagene CIS-FACTORIAL HepG2 Assay for human Enhancer Box (E-box) (AID 2282936)
Conditions: HepG2 E-box cis-reporter transcription, actives raise or lower the signal
Experimental: ATG_CIS is a cell-based, multiplexed-readout assay that uses HepG2, a human liver cell line, with measurements taken at 24 hours after chemical dosing in a 24-well plate.ATG_E_Box_CIS is one of 52 assay component(s) measured or calculated from the ATG_CIS assay. […] This assay endpoint, ATG_E_Box_CIS, was analyzed with bidirectional fitting relative to DMSO as the negative control and baseline of activity. […]
Calls of active or inactive are those of the source. The calls were made as follows: active = hit-call score of the fitted dose curve at least 0.9, where 1 is the maximum; inactive = score below 0.9.
Possible outcomes: True (active), False (inactive)

{"columns": ["MOLECULE", "CATEGORY_LABEL"],
 "data": [
  ["c1ccc2c(c1)Oc1ccccc1S2", "True"],
  ["CNC[C@H](O)[C@@H](O)[C@H](O)[C@H](O)CO", "False"],
  ["Brc1ccc(Oc2ccc(Br)cc2)cc1", "False"],
  ["O=C(c1ccccc1)c1ccccc1O", "False"],
  ["Cc1cc(O)cc(C)c1Cl", "False"],
  ["CCOc1ccc2c(c1)C(C)CC(C)(C)N2 (stereo unspecified)", "False"],
  ["O=C1NC(=O)[C@@H]2CC=CC[C@H]12", "False"],
  ["CCCCCCC1CCCC(=O)O1 (stereo unspecified)", "True"],
  ["CCCCCCOC(=O)CCCCCCCC(=O)OCCCCCC", "False"],
  ["O=C(O)/C=C\\C(=O)O", "False"],
  ["CCCOCCC", "False"],
  ["CC/C=C\\CCO", "False"],
  ["Oc1cccc2ccccc12", "False"],
  ["Clc1ccc(Sc2cc(Cl)c(Cl)cc2Cl)cc1", "False"],
  ["Cc1ccnc(N)c1", "False"],
  ["CCCCNC(N)=O", "False"]
]}
